The values you see were collected from paper PMC8138313.

Overview of reported IC50 across a group of compounds:
TESTED_TARGET: HLA A*0201 (Homo sapiens, UniProt P04439, D140Y/D185E/D98H/E176V/E277Q/G131W/G231S/I119V/I121R/I166T/I218V/L300P/L318F/N151K/N90K/P208A/P217A/Q86G/Q94H/R138H/R169H/T345S)
MEASUREMENT_NOTES: HLA class I binding assay (cell-free competition, fluorescence polarization)
Where a SMILES comes first, the peptide text is derived from it.

- COMPOUND: "CC[C@H](C)[C@H](NC(=O)CNC(=O)[C@H](CO)NC(=O)[C@H](CC(N)=O)NC(=O)[C@H](CC(=O)O)NC(=O)[C@@H](N)Cc1ccccc1)C(=O)N[C@@H](CO)C(=O)N[C@@H](CC(C)C)C(=O)N[C@@H](CC(C)C)C(=O)O (H-FDNSGISLL-OH)"
  IC50 (µM): 229
- COMPOUND: "CC(C)C[C@H](NC(=O)[C@H](C)NC(=O)[C@H](CC(=O)O)NC(=O)[C@H](Cc1ccccc1)NC(=O)[C@@H](NC(=O)[C@@H](N)CC(N)=O)[C@@H](C)O)C(=O)N[C@@H](Cc1ccc(O)cc1)C(=O)N[C@@H](Cc1ccc(O)cc1)C(=O)N[C@H](C(=O)O)C(C)C (H-NTFDALYYV-OH)"
  IC50 (µM): 8.76
